# System: SNB-75 CNS
# protocol: NCI tumour cell line growth inhibition, 48 h; in the data active = GI50 below about 0.43 µM; inactive = the rest
Possible outcomes: T (active), F (inactive)

- O=C(O)c1ccccc1Nc1ccc2nnc(-c3ccncc3)n2n1: F
- Fc1cccc(-c2[nH]nc3nc(Nc4cccnc4)sc23)c1: F
- COc1cc2c(cc1OCCCN1CCN(c3ncnc4ccccc34)CC1)N=CC1CCCN1C2=O (centres undefined): T
- Nc1c2ccccc2nc2ccccc12 (tested in a mixture with another compound): F
- COc1cc(C)c(NC(=O)CN(C)C)cc1Nc1nc(Nc2cccc(F)c2C(N)=O)c2cc[nH]c2n1: F
- COc1ccc2nc3ccccc3c(NCc3ccc(C)cc3)c2c1: F
- Nc1nc(-c2ccc(Cl)cc2)cc(-c2ccccc2)c1-c1nc2ccccc2o1: F
- Cc1cc2nc(C(Cl)Cl)nc(-c3ccccc3)n2n1: F
- C/C(=C\c1ccn(-c2ccc(N)cc2F)n1)[C@@H]1C[C@@H]2O[C@]2(C)CCC[C@H](C)[C@H](O)[C@@H](C)C(=O)C(C)(C)[C@@H](O)CC(=O)O1: T

---

# Test system: NCI-H460 lung
Classes used: y = active, n = inactive

- COc1cc2c3c(n(CCCN4CCCC(O)C4)c(=O)c2cc1OC)-c1cc2c(cc1C3=O)OCO2 (centres undefined): y
- CCN(CC)CC[n+]1cc2cc(OC)c(OC)cc2c2ccc3cc4c(cc3c21)OCO4: y
- Nc1nc(-c2ccc(Cl)cc2)cc(-c2ccccc2)c1-c1nc2ccccc2o1: n
- C[C@@H]1OCC2(CCN(c3cnc(Sc4ccnc(N)c4Cl)c(N)n3)CC2)[C@@H]1N: n
- Nc1ccc(-c2ccc(-c3nc4cc(Cl)c(Cl)cc4[nH]3)cc2)cc1: n
- Fc1cccc(-c2[nH]nc3nc(Nc4cccnc4)sc23)c1: n
- Cc1nc2sc(C(=O)Nc3cccc(Br)c3)c(N)c2cc1C(O)c1ccccc1 (centres undefined): y
- CC(CN)[C@@H]1CC[C@]2(CO)CC[C@]3(C)[C@H](CC[C@@H]4[C@@]5(C)CCC(N)C(C)(C)[C@@H]5CC[C@]43C)[C@@H]12 (some centres undefined): n
- O=C(O)c1ccccc1Nc1ccc2nnc(-c3ccncc3)n2n1: n

---

# Test system: KM12 colon
# protocol: NCI tumour cell line growth inhibition, 48 h
Known TGI of a selection of molecules
endpoint label: TGI

* C[C@@H]1OCC2(CCN(c3cnc(Sc4ccnc(N)c4Cl)c(N)n3)CC2)[C@@H]1N | > 100 µM
* CC(C)(C)c1cc(-c2nc3c(F)c(F)c(F)c(F)c3[nH]2)cc(C(C)(C)C)c1O | > 100 µM
* C=C[C@H]1C=Cc2c(OC)cccc2[C@@H]1COP1(=S)NC(C)C(c2ccccc2)O1 (stereo partly specified) | > 100 µM
* C#Cc1cc(CN(CC(=O)OC(C)(C)C)CC(=O)OC(C)(C)C)nc(CN(CC(=O)OC(C)(C)C)CC(=O)OC(C)(C)C)c1 | 23 µM
* O=C(O)c1ccccc1Nc1ccc2nnc(-c3ccncc3)n2n1 | 23.9 µM
* O=C(CC(=O)N1N=C(N(c2ccccc2)c2ccccc2)CC1c1ccccc1)Nc1ccccc1 (stereo unspecified) | > 100 µM

---

# TGI annotations
# Test system: SF-295 CNS
# protocol: NCI tumour cell line growth inhibition, 48 h
endpoint label: TGI (µM)

• COc1ccc2nc3ccccc3c(NCc3ccc(C)cc3)c2c1 = 2.74
• COc1cc(Nc2nc3cc(C(F)(F)F)ccc3nc2C)cc(OC)c1OC = 4.91
• CC(C)N1[C@@H]2CCCC[C@H]2N(C(C)C)P1(=O)C(=O)/C=C/c1ccccc1 = 23.4
• O=C(O)c1ccccc1Nc1ccc2nnc(-c3ccncc3)n2n1 = 40.1

---

# Test system: U251 CNS
# protocol: NCI tumour cell line growth inhibition, 48 h
endpoint label: TGI

- CC/C(SC)=[N+](\C)[O-]: > 100 µM
- C[C@@H]1OCC2(CCN(c3cnc(Sc4ccnc(N)c4Cl)c(N)n3)CC2)[C@@H]1N: > 100 µM
- Cc1cc(N(CCOS(C)(=O)=O)CCOS(C)(=O)=O)ccc1C=Nc1ccc(-c2csc(-c3ccc(Br)cc3)n2)cc1: 60.5 µM
- CCOC(=O)c1cc2cc(C)cc(C(=O)c3ccc([N+](=O)[O-])cc3)c2[nH]1: > 100 µM
- Cc1cc(=O)[nH]c(NNC(C#N)c2ccco2)n1 (stereo not given): > 100 µM
- O=C(C=Nc1ccccc1C(=O)[O-])c1cccs1.O=C(C=Nc1ccccc1C(=O)[O-])c1cccs1.[Zn+2]: 35.5 µM
- CC1=Nc2ccccc2C12C(c1ccccc1)C(c1ccccc1)C(=O)N1c3ccccc3CC12 (stereo not given): > 100 µM
- NC(=O)OCc1c(-c2ccccc2)nn(-c2ccccc2)c1COC(N)=O: > 100 µM
- COc1ccc(C(SCC(N)C(=O)O)(c2ccc(OC)cc2)c2ccc(OC)cc2)cc1 (stereo not given): 29.8 µM
- C=C[C@H]1C=Cc2c(OC)cccc2[C@@H]1COP1(=S)NC(C)C(c2ccccc2)O1 (stereo not given in full): > 100 µM

---

# System: SF-539 CNS
# protocol: NCI tumour cell line growth inhibition, 48 h; in the data active = GI50 below about 0.43 µM; inactive = the rest
Outcomes: TRUE for active, FALSE for inactive

• c1ccc2c3c(ccc2c1)-c1c(ccc2c(NCCCCN4CCCCC4)cccc12)C3 = FALSE
• Nc1ccc(-c2ccc(-c3nc4cc(Cl)c(Cl)cc4[nH]3)cc2)cc1 = FALSE
• C/C(=C\c1ccn(-c2ccc(N)cc2F)n1)[C@@H]1C[C@@H]2O[C@]2(C)CCC[C@H](C)[C@H](O)[C@@H](C)C(=O)C(C)(C)[C@@H](O)CC(=O)O1 = TRUE
• CCN(CC)CC[n+]1cc2cc(OC)c(OC)cc2c2ccc3cc4c(cc3c21)OCO4 = FALSE
• COc1cc(C)c(NC(=O)CN(C)C)cc1Nc1nc(Nc2cccc(F)c2C(N)=O)c2cc[nH]c2n1 = FALSE
• CC[CH2][Sn]([CH2]CC)([O]C(=O)Cc1ccc(F)cc1)[O][Sn]([CH2]CC)([CH2]CC)[O]C(=O)Cc1ccc(F)cc1 = TRUE
• COc1cnc2c(c1)C(=O)c1c-2n(CCCNC(C)C)c(=O)c2cc([N+](=O)[O-])ccc12 = TRUE
• COc1ccc(C2CC(=O)c3c(O)c(OC)c(OC)c(OC)c3O2)cc1O (stereo not drawn) = TRUE

---

# Test system: DU-145 prostate
# protocol: NCI tumour cell line growth inhibition, 48 h
endpoint label: TGI

* C=C(CN)CO[Si](C)(C)C(C)(C)C | > 100 µM
* O=Nc1c(NO)ccc2nn(-c3ccccc3)nc12 | > 100 µM
* O=c1cc(-c2cccc(OCc3ccccc3)c2)[nH]c2cc3c(cc12)OCO3 | > 100 µM
* COc1cccc(Nc2nc(N)nc(N)c2N=O)c1 | 36.7 µM
* COC(=O)c1ccccc1C1CN=NC12Cc1cc(C)cc(C)c1C2=O (stereo not given) | > 100 µM
* COc1ccc(C2=NN(C(=O)c3cccnc3)C(O)(c3cc(F)c(Cl)cc3Cl)C2)cc1OC (stereo not given) | > 100 µM
* Cc1ccc(NC(=O)c2cc3ccccc3cc2O)c(C)c1.Cc1ccc(NC(=O)c2cc3ccccc3cc2[O-])c(C)c1.[Ni+2] | 13.2 µM
* CC#CC(=O)N1CC[C@@H](n2c(=O)n(-c3ccc(Oc4ccccc4)cc3)c3c(N)ncnc32)C1 | > 100 µM
* O=C(O)CCSC(=S)Nc1ccc([N+](=O)[O-])cc1 | > 100 µM
* COc1cc2c(cc1OCCCN1CCN(c3ncnc4ccccc34)CC1)N=CC1CCCN1C2=O (stereo not given) | 0.311 µM

---

# System: IGROV1 ovarian
# protocol: NCI tumour cell line growth inhibition, 48 h
endpoint label: TGI (µM)

* CC1=CC(=O)c2ccc(C)cc2C1=O | 30.8
* C#Cc1cc(CN(CC(=O)OC(C)(C)C)CC(=O)OC(C)(C)C)nc(CN(CC(=O)OC(C)(C)C)CC(=O)OC(C)(C)C)c1 | 26.7
* C=C(CN(C)C)C(=O)c1ccc(Oc2ccccc2)cc1 | 30.8
* COc1ccc(C(SCC(N)C(=O)O)(c2ccc(OC)cc2)c2ccc(OC)cc2)cc1 (stereo not given) | 20.2
* C=CCSSc1ncnc2c1ncn2C1OC(CO)C(O)C1O (stereo not given) | 0.644
* COc1cccc(Nc2nc(N)nc(N)c2N=O)c1 | 94
* COc1cc2c3c(n(CCCN4CCCC(O)C4)c(=O)c2cc1OC)-c1cc2c(cc1C3=O)OCO2 (stereo not given) | 8.87
* COc1cc2c(cc1OCCCN1CCN(c3ncnc4ccccc34)CC1)N=CC1CCCN1C2=O (stereo not given) | 0.0269

---

# Tested on: NCI/ADR-RES ovarian
# protocol: NCI tumour cell line growth inhibition, 48 h
endpoint label: TGI

- COc1ccc2nc3ccccc3c(NCc3ccc(C)cc3)c2c1: 4.98 µM
- O=Nc1c(NO)ccc2nn(-c3ccccc3)nc12: > 100 µM
- O=C(Nc1ccc(Cl)cc1)NS(=O)(=O)c1c(-c2ccccc2)oc2ccccc2c1=O: > 100 µM
- O=C1C=C2CC[C@H]3[C@@H]4CC[C@H](OC(=O)c5cccc6cc7ccccc7nc56)[C@H]4CC[C@@H]3[C@H]2CC1: > 100 µM
- Cc1cn(C2CC(NC(=NCC3OC(n4cnc5c(N)ncnc54)CC3O)NC#N)C(CO)O2)c(=O)[nH]c1=O (stereo not given): > 100 µM
